Molecular target: K903A ARTD1 (KA-ARTD1) (Homo sapiens, UniProt P09874, K903A)
Sequence (P09874 whole entry K903A): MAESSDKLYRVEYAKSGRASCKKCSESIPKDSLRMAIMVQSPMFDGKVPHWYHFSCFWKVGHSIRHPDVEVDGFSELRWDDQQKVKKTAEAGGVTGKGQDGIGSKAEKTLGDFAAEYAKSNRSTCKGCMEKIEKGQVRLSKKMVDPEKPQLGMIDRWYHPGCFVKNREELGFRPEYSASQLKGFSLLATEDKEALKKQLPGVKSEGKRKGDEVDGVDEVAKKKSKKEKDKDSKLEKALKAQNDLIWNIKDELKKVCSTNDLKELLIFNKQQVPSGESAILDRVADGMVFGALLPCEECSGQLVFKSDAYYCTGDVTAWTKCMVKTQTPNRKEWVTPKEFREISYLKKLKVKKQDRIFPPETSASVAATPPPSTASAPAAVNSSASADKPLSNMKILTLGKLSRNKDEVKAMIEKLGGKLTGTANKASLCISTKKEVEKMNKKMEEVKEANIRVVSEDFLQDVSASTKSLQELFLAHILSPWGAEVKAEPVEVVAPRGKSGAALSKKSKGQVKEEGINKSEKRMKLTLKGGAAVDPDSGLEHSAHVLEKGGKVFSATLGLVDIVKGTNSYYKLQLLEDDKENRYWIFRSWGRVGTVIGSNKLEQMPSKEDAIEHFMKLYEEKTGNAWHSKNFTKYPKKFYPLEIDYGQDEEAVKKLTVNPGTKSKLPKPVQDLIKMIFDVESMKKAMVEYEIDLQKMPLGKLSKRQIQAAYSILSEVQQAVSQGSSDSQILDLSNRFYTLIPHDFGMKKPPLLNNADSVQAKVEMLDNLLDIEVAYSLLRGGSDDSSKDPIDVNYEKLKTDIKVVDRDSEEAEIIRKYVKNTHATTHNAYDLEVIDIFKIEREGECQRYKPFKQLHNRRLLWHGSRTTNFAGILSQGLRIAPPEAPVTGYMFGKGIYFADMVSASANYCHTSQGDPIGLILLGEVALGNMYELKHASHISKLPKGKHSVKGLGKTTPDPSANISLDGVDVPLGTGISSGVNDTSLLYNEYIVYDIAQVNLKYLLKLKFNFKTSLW
Assay: Inhibition of ADP-ribose transfer to Histone H1 using 6-a-NAD+
measure: pIC50
As a rule, pIC50 stands for the negative log10 of the concentration, concentration in M.

pIC50 lookup needed for CCc1cncc(C(N)=O)c1 [5-ethyl-nicotinamide] , thanks.
3.78

====

Molecular target: wild-type ARTD1 (WT-ARTD1) (Homo sapiens)
Sequence (P09874 whole entry): as the sequence (P09874 whole entry K903A) above, with A903K counted along it
measure: pIC50
Note on pIC50: it is the negative log10 of concentration, concentration in mol/L.

Given CCc1cncc(C(N)=O)c1 [5-ethyl-nicotinamide] , state its recorded pIC50.
2.63
